Molecular target: AHR (Homo sapiens)
Sequence (P35869 11-848): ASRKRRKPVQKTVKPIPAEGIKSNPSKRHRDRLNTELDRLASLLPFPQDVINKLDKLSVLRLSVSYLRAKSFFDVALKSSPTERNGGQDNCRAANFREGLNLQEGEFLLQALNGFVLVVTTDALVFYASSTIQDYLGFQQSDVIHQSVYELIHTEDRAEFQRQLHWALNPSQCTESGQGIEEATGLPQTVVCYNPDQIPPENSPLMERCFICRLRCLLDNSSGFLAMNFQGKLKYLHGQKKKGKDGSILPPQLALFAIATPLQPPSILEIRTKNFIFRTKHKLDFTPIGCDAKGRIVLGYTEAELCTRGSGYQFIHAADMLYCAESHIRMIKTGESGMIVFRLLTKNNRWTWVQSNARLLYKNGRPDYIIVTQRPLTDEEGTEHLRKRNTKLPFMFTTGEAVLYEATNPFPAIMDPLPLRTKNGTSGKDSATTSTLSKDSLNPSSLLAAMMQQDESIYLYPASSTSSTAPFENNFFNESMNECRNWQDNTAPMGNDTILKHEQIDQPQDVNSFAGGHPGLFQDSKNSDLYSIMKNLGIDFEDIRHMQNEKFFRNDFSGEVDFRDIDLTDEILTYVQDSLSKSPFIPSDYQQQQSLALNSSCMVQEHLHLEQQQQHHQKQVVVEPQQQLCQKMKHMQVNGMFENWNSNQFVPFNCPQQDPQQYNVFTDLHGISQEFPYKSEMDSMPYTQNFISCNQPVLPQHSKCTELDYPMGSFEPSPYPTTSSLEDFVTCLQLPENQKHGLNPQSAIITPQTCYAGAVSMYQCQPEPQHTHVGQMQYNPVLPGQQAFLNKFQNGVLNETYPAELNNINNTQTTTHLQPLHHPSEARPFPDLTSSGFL
Assay: In vitro assay 1: antagonism in human cell line (transactivation assay, kynurenic acid prestimulated)
Conditions: Assay 1: AHR-luc Hum Antagonism IC50 [M], 150 μM kynurenic acid, 20 hours, firefly luciferase
measuredEndpoint: IC50 (M)

compound="O=C(NC(CO)C1CCOC1)c1cc(-c2ccc(OC(F)F)cc2)nn(-c2cccc(F)c2)c1=O (single isomer, unassigned) [Example 146]" measuredendpoint=IC50 datavalue=2.94e-07
compound=COc1ccc(-c2cc(C(=O)N[C@@H]3CCC[C@@H]3O)c(=O)n(-c3cccc(F)c3)n2)cc1 measuredendpoint=IC50 datavalue=6.97e-08
compound="COc1ccc(-c2cc(C(=O)N[C@@H]3CCCC[C@@H]3O)c(=O)n(-c3cccc(F)c3)n2)cc1 (single isomer, unassigned) [Example 108]" measuredendpoint=IC50 datavalue=2.4e-07

1: O=C(N[C@H]1COC[C@H]1O)c1cc(-c2ccc(Cl)cc2)nn(-c2cccc(F)c2)c1=O (single isomer, unassigned) [Example 384]
2: O=C(NC(CO)C1CCOC1)c1cc(-c2ccc(Cl)c(F)c2)nn(-c2cccc(F)c2)c1=O (single isomer, unassigned) [Example 293]
3: C[C@@H](CO)NC(=O)c1cc(-c2ccc(OC(F)F)cc2)nn(-c2cccc(F)c2)c1=O
4: CC(C)(O)C(O)CNC(=O)c1cc(-c2ccc(Cl)cc2)nn(-c2cccc(F)c2)c1=O (racemic)
Exercise: Please list the entries, largest IC50 first. Give the order by naming the labels one after another as requested.
Key: 3, 4, 2, 1

* * *

Target: UniProtKB P35869
Experiment: In vitro assay 1: antagonism in human cell line (transactivation assay, kynurenic acid prestimulated)
Conditions: Assay 1: AHR-luc Hum Antagonism IC50 [M], 150 μM kynurenic acid, 20 hours, firefly luciferase
measuredEndpoint: IC50 (M)

# annotated cases, reported IC50 shown
compound="CN(C)c1ccc(-c2cc(C(=O)NC(CO)C(F)(F)F)c(=O)n(-c3cccc(F)c3)n2)cc1Cl (stereo not shown)" systemtested="UniProtKB P35869" measurementunits=M datavalue=3.97e-08
compound="CC(O)C(NC(=O)c1cc(-c2ccc(C(F)(F)F)cc2)nn(-c2cccc(F)c2)c1=O)C(F)(F)F (single isomer, unassigned) [Example 350]" systemtested="UniProtKB P35869" measurementunits=M datavalue=2.08e-07
compound="CN1C[C@H](O)[C@H](NC(=O)c2cc(-c3ccc(Cl)cc3)nn(-c3cccc(F)c3)c2=O)C1 (relative stereo)" systemtested="UniProtKB P35869" measurementunits=M datavalue=6.9e-07
compound="O=C(NC(CO)C1CCOC1)c1cc(-c2ccc(Cl)cc2)nn(-c2cccc(F)c2)c1=O (single isomer, unassigned) [Example 42]" systemtested="UniProtKB P35869" measurementunits=M datavalue=3.44e-07
compound=Cc1ccc(-c2cc(C(=O)N[C@H](C)CO)c(=O)n(-c3cccc(F)c3)n2)cc1C systemtested="UniProtKB P35869" measurementunits=M datavalue=6.75e-07

1: O=C(N[C@H]1COC[C@@H]1O)c1cc(-c2ccc(Cl)cc2)nn(-c2cccc(F)c2)c1=O (single isomer, unassigned) [Example 136]
2: O=C(NCC(O)C(F)(F)F)c1cc(-c2ccc(C(F)F)cc2)nn(-c2cccc(F)c2)c1=O (stereo not shown) [Example 94]
Exercise: Record comparison, field IC50: mark the lower of 1 and 2 . Indicate your choice by writing its label.
Key: 2
